- target-or-test-system: Ecm22 (UniProt Q05958)
- Sequence: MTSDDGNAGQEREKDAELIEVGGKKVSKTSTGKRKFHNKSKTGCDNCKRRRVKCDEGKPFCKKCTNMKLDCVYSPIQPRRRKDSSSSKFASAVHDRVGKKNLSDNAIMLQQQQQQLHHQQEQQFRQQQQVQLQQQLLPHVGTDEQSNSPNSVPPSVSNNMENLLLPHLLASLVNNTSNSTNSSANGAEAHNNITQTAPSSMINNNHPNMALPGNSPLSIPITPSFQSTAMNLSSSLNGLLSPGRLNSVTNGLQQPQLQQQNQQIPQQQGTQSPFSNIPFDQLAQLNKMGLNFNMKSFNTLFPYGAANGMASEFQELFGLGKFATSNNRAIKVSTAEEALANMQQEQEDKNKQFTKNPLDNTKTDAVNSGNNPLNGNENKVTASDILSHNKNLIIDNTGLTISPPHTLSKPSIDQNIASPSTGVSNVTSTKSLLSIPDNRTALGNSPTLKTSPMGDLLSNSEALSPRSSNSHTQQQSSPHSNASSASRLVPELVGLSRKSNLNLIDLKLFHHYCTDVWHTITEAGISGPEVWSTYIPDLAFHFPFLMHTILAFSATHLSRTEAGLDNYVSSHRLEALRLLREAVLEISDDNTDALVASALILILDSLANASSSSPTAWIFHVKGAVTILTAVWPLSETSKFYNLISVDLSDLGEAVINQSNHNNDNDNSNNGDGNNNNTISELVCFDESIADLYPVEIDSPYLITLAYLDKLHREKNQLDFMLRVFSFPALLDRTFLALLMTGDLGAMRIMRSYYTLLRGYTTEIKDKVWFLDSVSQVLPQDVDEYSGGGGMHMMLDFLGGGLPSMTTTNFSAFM
- run-description: PBM E-score (8-mer binding enrichment) (E-score (-0.5 to 0.5)); higher = stronger / more preferred TF binding
- condition-parameters: protein concentration: 200 nM; construct: GST-full length
Over roughly 33,000 sequences, “E-score (-0.5 to 0.5)” has its median near -0.041; the highest 2% begin near 0.37. This is one part of a sample in which the highest values are shown more often than they occur.
Assign MET whenever PBM E-score does not fall below -0.1; assign NOT MET whenever it does.

Past entries and their recorded results:
AGATCGAA MET
AATTCAGT NOT MET

# evaluate next
Hi, just wondering whether ACCTTCGC shows PBM E-score of -0.1 or higher.
MET
